All values here come from PubChem BioAssay AID720504.

measured-on: Serine/threonine-protein kinase PLK1 (Homo sapiens)
assay-name: qHTS for Inhibitors of PLK1-PDB (polo-like kinase 1 - polo-box domain): Primary Screen; also: nearly all actives have a fitted effect of over 65% in size; as to max response, negative = inhibition: series mostly up to about 57 µM; % is scaled to controls: 0 for no effect and ±100 for the full control effect
assay-conditions: Plk1 PBD binding of FITC phosphopeptide, fluorescence polarization
Excerpt: The polo-like kinase 1 (Plk1) is a member of a conserved subfamily of serine / threonine protein kinases that plays a pivotal roles in cell proliferation. It has a C-terminal non-catalytic region called the polo-box domain (PBD) that plays a crucial role in the subcellular localization of the Plk1. […] This project employed a fluorescence polarization (FP) assay using a FITC-conjugated phospho-9-mer (p-9-mer) peptide and purified human Plk1 PBD protein. […]
In all, about 360,000 compounds went through this assay and about 10,000 (2.8%) were called active. Inconclusive results (about 4%) are left out. The sample holds actives, similar compounds and a random draw of the others, so the mix is not that of the screen.
measured-quantity: max response, negative = inhibition (%)
All answers are understood in %, so give the number only.

Record excerpt, results attached:
S=C(NCCc1ccccc1)N1Cc2cc(N3CCOCC3)ccc2-n2nncc2C1 | -7.87
N=c1ccccn1Cc1ccccc1 | -5.72
CCc1nc2ccccc2c(=O)n1-c1cccc(OC)c1 | -4.27
COP(=O)(NS(=O)(=O)c1ccccc1)OC | -7.79
Cc1ccc(N(C)C(=O)Oc2cccc3ccc(C)nc23)cc1 | 0.137
CC1CCCN1CCC(C(N)=O)(c1ccccc1)c1ccccc1 (centres undefined) | -4.65

Kindly state the measured max response, negative = inhibition obtained for CCOP(=O)(OCC)C(NC(=O)NC)C(N)=O (centres undefined) with Serine/threonine-protein kinase PLK1 (Homo sapiens). 0.136

Kindly state the measured max response, negative = inhibition obtained for O=C(O)C1CSC(c2cccnc2)N1 (centres undefined) with Serine/threonine-protein kinase PLK1 (Homo sapiens). -10

Kindly state the measured max response, negative = inhibition obtained for CC=C(C)C(=O)OC1CCN2CC=C(COC(=O)C(O)(C(C)OC)C(C)(C)O)C12 (centres undefined) with Serine/threonine-protein kinase PLK1 (Homo sapiens). -10.3

====

measured-on: Serine/threonine-protein kinase PLK1 (Homo sapiens) (UniProt P53350)
Sequence (P53350 whole entry, looked up, the tested form may be a part): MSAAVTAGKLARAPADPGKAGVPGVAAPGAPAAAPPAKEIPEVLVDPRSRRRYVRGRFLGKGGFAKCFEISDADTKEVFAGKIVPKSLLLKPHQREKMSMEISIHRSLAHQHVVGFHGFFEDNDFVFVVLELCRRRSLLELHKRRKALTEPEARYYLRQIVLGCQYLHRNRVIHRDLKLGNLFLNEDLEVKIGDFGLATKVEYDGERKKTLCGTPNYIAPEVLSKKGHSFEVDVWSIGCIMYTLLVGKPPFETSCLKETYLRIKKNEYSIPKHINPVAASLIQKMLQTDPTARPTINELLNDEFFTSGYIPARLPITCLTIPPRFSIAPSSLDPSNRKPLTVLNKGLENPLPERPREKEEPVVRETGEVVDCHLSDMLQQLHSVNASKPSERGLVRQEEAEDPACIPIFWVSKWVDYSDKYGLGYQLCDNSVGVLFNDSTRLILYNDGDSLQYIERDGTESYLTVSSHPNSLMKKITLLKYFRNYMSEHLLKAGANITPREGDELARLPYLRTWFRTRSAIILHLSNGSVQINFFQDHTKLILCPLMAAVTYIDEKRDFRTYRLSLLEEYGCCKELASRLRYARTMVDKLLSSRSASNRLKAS
assay-name: qHTS for Inhibitors of PLK1-PDB (polo-like kinase 1 - polo-box domain): Primary Screen; also: nearly all actives have a fitted effect of over 65% in size; also: potency is read from the fitted curve at half-maximal effect
assay-conditions: Plk1 PBD binding of FITC phosphopeptide, fluorescence polarization
Out of some 360,000 compounds screened, about 10,000 (2.8%) were called active. About 4% were inconclusive and are not listed. The full list was thinned out, with actives kept by preference.
measured-quantity: Potency

Record excerpt, results attached:
CCOC(=O)[C@]12Cc3ccccc3[C@H]1N(C1CCCCC1)C(=O)c1cc(OC)ccc12 | 10.6 µM (active)
COc1ccc2c(c1)NP(=S)(c1ccccc1)N2 (stereo not given) | 3.36 µM (active)
COc1cccc(N2C(=O)NC(=O)/C(=C\c3ccc([N+](=O)[O-])s3)C2=O)c1 | 5.32 µM (active)
O=C(O)COc1ccccc1/C=C1\C(=O)NC(=O)N(CCC2=CCCCC2)C1=O | 11.9 µM (active)
Cc1ccnc(-n2c(C)cc(/C=C3\C(=O)NC(=S)N(C)C3=O)c2C)c1 | 2.38 µM (active)
COC(=O)N(c1ccc(OC)cc1)P1(=S)OCCC(C)O1 (stereo not given) | 2.67 µM (active)
CN(C)CC1Oc2ccccc2OC1(O)c1ccccc1 (stereo not given) | 5.32 µM (active)
CCN1C(=O)C(=Cc2c(C)n(CC(=O)NCC3CCCO3)c3ccccc23)C(=O)N(CC)C1=S (stereo not given) | 1.06 µM (active)

Can you look up the measured Potency of CCOc1ccc(CN(CCCl)CCCl)cc1C(=O)OC for me? 26.7 µM (active)

Can you look up the measured Potency of COc1cccc(N2C(=O)NC(=O)/C(=C\c3cn(C)c4ccccc34)C2=O)c1 for me? 9.47 µM (active)
